Entries and their measured growth follow.
system: RPMI-8226 leukemia; assay: NCI-60 one-dose screen, 48 h (100 = growth as untreated, 0 = no growth, -100 = all killed); details: 10 µM unless noted
This is part of a sample that, as a whole, favours compounds with a hit. Of some 83,000 tested, about 20% had one in any assay.
propertyMeasured: growth (%)

                                    compound            testedon  unitsymbol  observedresult
 0  COc1ccc(CNc2ccc3nc(CCC4CCCCC4)[nH]c3c2)cc1  RPMI-8226 leukemia           %            40.2
 1  CCN1C(=O)N(CC)C2C1NC(=S)N2/N=C/C=C/c1cccs1 (centres undefined)  RPMI-8226 leukemia           %            25.4
 2  Cc1c(C(=O)C(SC(=S)N2CCOCC2)SC(=S)N2CCOCC2)nnn1-c1ccc([N+](=O)[O-])cc1  RPMI-8226 leukemia           %            90.1
 3  COc1ccc(C2=C/C(=C\c3ccccc3O)C(=O)N2Cc2ccccc2)cc1  RPMI-8226 leukemia           %              63
 4  COc1cc(CNC(=O)CCCC/C=C/C(C)C)ccc1OCc1cn(-c2cccc([N+](=O)[O-])c2)nn1  RPMI-8226 leukemia           %            65.9
 5  CN1C(=O)N(C)C2C1NN=c1s/c(=C\c3ccccc3F)c(=O)n12 (centres undefined)  RPMI-8226 leukemia           %            20.7
 6   O=C(/C=C/c1ccco1)Nc1ncc(Cc2ccc(F)cc2)s1  RPMI-8226 leukemia           %            32.4
 7  C=C(C)Cn1c(SCC(=O)c2cccs2)nc2sc3c(c2c1=O)CCCC3  RPMI-8226 leukemia           %            50.7
 8  COC1CC(O)C2=C(CC3C(/C(C)=C\CC=C(C)C)CCC3(C)O2)C1=O (centres undefined)  RPMI-8226 leukemia           %            93.6
 9  Cc1nn(-c2ccccc2)c(Oc2ccccc2)c1/C=N/NC(=O)Cn1c(=O)sc2ccccc21  RPMI-8226 leukemia           %            33.8
10  CC/C(=C(/c1ccc(Cl)cc1)c1ccc(OCCN2CCCC2)cc1)c1ccccc1  RPMI-8226 leukemia           %            7.58
11     CN(C)C(=O)OCc1ccc2c(Cl)cc(Cl)c(O)c2n1  RPMI-8226 leukemia           %            34.7
12  CC(=O)Cc1nsc(NC(=O)c2cc(-c3cc(Cl)ccc3Cl)oc2C)n1  RPMI-8226 leukemia           %             100
13  Nc1ncc(-c2ccc3ncnc(N4CCc5cc(F)c(Cl)cc54)c3c2)cn1  RPMI-8226 leukemia           %            20.8
14  COc1ccc(C(c2cc(OC)c(OC)c(OC)c2)n2cncn2)cc1O (centres undefined)  RPMI-8226 leukemia           %            20.7
15  Nc1ncnc2c1N=C(c1ccc([N+](=O)[O-])cc1)CC(c1ccc3c(c1)OCO3)N2 (centres undefined)  RPMI-8226 leukemia           %            71.1
16  Cn1cc(-c2csc(-c3cn(C)c4ccc(F)cc34)n2)c2cnccc21  RPMI-8226 leukemia           %           -38.4
17  Cn1cc(-c2ccc3occ(-c4cccc(-c5ccncc5)c4)c3n2)cn1  RPMI-8226 leukemia           %          0.0083
18  CCCS(=O)(=O)Nc1cccc(Nc2ncnc3cc(NC(=O)CCl)ccc23)c1Cl  RPMI-8226 leukemia           %           -32.1
19  COc1cc(/C=C2\CN(S(=O)(=O)c3ccc(C)cc3)C/C(=C\c3cc(CN4CCCC4)c(O)c(OC)c3)C2=O)cc(CN2CCCC2)c1O  RPMI-8226 leukemia           %           -34.6
20  O=C1CC2C=CCN2C=C1NC(=O)c1ccccc1 (centres undefined)  RPMI-8226 leukemia           %             112
21  O=C(Nc1ccccc1CNc1nc(Nc2ccc(OCCN3CCCC3)cc2)ncc1Cl)NC1CCCCC1  RPMI-8226 leukemia           %            60.8
22  CC(=O)OCC(=O)O[C@@H]1C[C@]2(C(C)C)O[C@@]1(C)[C@@H]1CC[C@@H](C)[C@H]1[C@@H]2OC(=O)/C=C/c1ccccc1  RPMI-8226 leukemia           %            73.7
23  O=C1Nc2ccccc2/C1=C/c1cccn1CCCCCCn1c2ccccc2c(=O)c2ccccc21  RPMI-8226 leukemia           %            25.3
24                       O=C(O)COc1ccc(F)cc1  RPMI-8226 leukemia           %            97.5
25  CCOC(=O)C1=CCC(n2cc(F)c(=O)[nH]c2=O)O1 (centres undefined)  RPMI-8226 leukemia           %             105
26  COc1cc(/C=C2\C(=O)N(CCOc3cc(O)c4c(=O)cc(-c5ccccc5)oc4c3)c3ccccc32)cc(OC)c1O  RPMI-8226 leukemia           %            84.1
27  O=C1NCCN1/N=C/c1c(Cl)n(Cc2ccc(Cl)cc2)c2ccccc12  RPMI-8226 leukemia           %            82.6
28  N#CC1=C(N)Oc2c(ccc3ccccc23)C1c1cc2ccccc2n2nnnc12 (centres undefined)  RPMI-8226 leukemia           %           -8.74
